Sourced from the supplement of paper PMC12645437

Target: T1, CRBN, Q96SW2;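 further: pooled lentiviral library of zinc finger degron-EGFP fusions in mCherry-positive Jurkat cells, FACS-sorted after compound exposure, with degron abundance counted by next-generation sequencing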
T1 chain: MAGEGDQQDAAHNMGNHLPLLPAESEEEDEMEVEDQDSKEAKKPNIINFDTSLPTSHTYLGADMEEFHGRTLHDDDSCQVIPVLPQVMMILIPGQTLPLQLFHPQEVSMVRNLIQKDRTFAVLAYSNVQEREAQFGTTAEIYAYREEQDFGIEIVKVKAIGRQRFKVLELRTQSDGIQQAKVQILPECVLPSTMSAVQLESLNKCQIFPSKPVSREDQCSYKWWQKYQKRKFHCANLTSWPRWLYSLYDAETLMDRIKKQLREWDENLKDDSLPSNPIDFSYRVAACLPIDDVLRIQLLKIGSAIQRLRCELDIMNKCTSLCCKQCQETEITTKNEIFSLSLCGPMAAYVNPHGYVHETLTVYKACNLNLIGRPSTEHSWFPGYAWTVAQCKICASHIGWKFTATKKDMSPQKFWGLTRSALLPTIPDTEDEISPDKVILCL
Experiment: log2 fold change of degron read counts, EGFP-low vs EGFP+ sorted cells (limma voom), compound-induced degradation; higher = more compound-induced degradation of the degron-EGFP fusion; degrons are variants of IKZF1/3 zinc finger 2; compound dose not given here
Conditions: Jurkat; 18 h; compound: compound 19 (5-tert-butyl-thalidomide)
Whole data set: some 8,300 sequences, median “log2 fold change of degron read counts, EGFP-low vs EGFP+ sorted cells (limma voom), compound-induced degradation” near -1.1, cut for the highest 2% near 3.2. The sample holds the highest values, similar sequences and a random draw of the others, so the mix is not that of the screen.
measured.quantity: log2 fold change of degron read counts

> print(dat)
                            record.sequence  test.value
1  LNCEICGFCCTQKGNLLRHIKL [46L_47N_49E_50I_52G_53F_54C_55C_67L_, Q9UKT9]       0.295
2  LLCEICGFFCTQKGNLLRHIKL [46L_47L_49E_50I_52G_53F_54F_55C_67L_, Q9UKT9]      -0.357
3  LHCPICGFMCTQKGNLLRHIKL [46L_47H_49P_50I_52G_53F_54M_55C_67L_, Q9UKT9]        2.17
4  FWCEQCGAIFTQKGNLLRHIKL [46F_47W_49E_50Q_52G_53A_54I_55F_67L_, Q9UKT9]      -0.201
5  LSCEICGFCCTQKGNLLRHIKL [46L_47S_49E_50I_52G_53F_54C_55C_67L_, Q9UKT9]        1.68
6  LYCEICGFCCTQKGNLLRHIKL [46L_47Y_49E_50I_52G_53F_54C_55C_67L_, Q9UKT9]        3.35
7  LCCEICGFCCTQKGNLLRHIKL [46L_47C_49E_50I_52G_53F_54C_55C_67L_, Q9UKT9]       0.944
